# Test system: S. aureus SH1000
# assay.text: Monospecies bacterial biofilm inhibition, static peg assay
# Format: cell-based, Staphylococcus aureus
# recorded.conditions: Staphylococcus aureus, SH1000, S. aureus SH1000, 37°C; read-out: BIC50
Note to self: IC50 under 80 µM means met, ties and anything higher get not met.

- O=C(N/N=C/c1ccc([N+](=O)[O-])o1)c1ccc(O)cc1 [Nifuroxazide, reference compound]: not met
- Clc1ccc(-c2cnc(NC3CCCC3)[nH]2)cc1: met
- CC(C)CNc1ncc(-c2ccc(Cl)cc2)[nH]1: not met
- CCCCCn1c(-c2ccccc2)cnc1N: not met
- O=c1cc(-c2ccccc2)oc2cc(O)c(O)c(O)c12 [Baicalein, reference compound]: met
- Brc1ccc(-c2cnc(NCCn3cc(C4CC4)nn3)[nH]2)cc1: not met
- CCCCNc1ncc(-c2ccc(Br)cc2)[nH]1: met

---

# Tested on: osteoblasts (OB)
# assay.text: Osteogenic differentiation, calcium and DNA assay
# Type: cell-based, human
# recorded.conditions: 12.5 μM
readout.name: survival of OB allowed

• CCCCCCCCn1c(-c2ccc(Cl)c(Cl)c2)cnc1NCC(C)C = more than 3 weeks
• CCCCCCCCn1c(-c2ccc(Cl)cc2)cnc1NCC(C)C = more than 3 weeks
• CCCCCCCCn1c(-c2ccc(Br)cc2)cnc1NC1CCCC1 = more than 3 weeks
• CCCCCCCCn1c(-c2ccc(Cl)c(Cl)c2)cnc1NC1CCCC1 = more than 3 weeks
• CCCCCCCCn1c(-c2ccc(Br)cc2)cnc1NCC(C)C = more than 3 weeks

---

# System: C. albicans SC5314 + S. epidermidis
# assay.text: Mixed C. albicans-S. epidermidis biofilm, selective plating CFU
# Assay type: cell-based, Candida albicans + Staphylococcus epidermidis
# recorded.conditions: 37°C, 25 μM compound, read-out: % CFU survival, C. albicans
readout.name: activity at 25 µM (%)

* CCCCCCCCn1c(-c2ccc(Cl)c(Cl)c2)cnc1NC1CCCC1 | 6.7
* CCCCCCCCn1c(-c2ccc(Cl)cc2)cnc1NC1CCCC1 | 2.9
* CC(C)CNc1ncc(-c2ccc(Cl)cc2)[nH]1 | 58.3
* CCCCCCCCn1c(-c2ccccc2)cnc1NC1CCCC1 | 10
* CCCCCCCCn1c(-c2ccc(Cl)cc2)cnc1NCC(C)C | 2
* CCCCCCCCn1c(-c2ccccc2)cnc1NCC(C)C | 62.4
* Clc1ccc(-c2cnc(NC3CCCC3)[nH]2)cc1 | 168
* CCCCCCCCn1c(-c2ccc(Br)cc2)cnc1NC1CCCC1 | 3.3
* CCCCCCCCn1c(-c2ccc(Br)cc2)cnc1NCC(C)C | 3.2
* CCCCCCCCn1c(-c2ccc(Cl)c(Cl)c2)cnc1NCC(C)C | 2.5

---

# Tested on: E. coli TG1
# assay.text: Monospecies bacterial biofilm inhibition, static peg assay
# Assay type: cell-based, Escherichia coli
# recorded.conditions: Escherichia coli, TG1, E. coli TG1, 25°C; read-out: IC50 (planktonic growth)
readout.name: IC50

* CCCCCCCCn1c(-c2ccc(Cl)cc2)cnc1NC1CCCC1 | > 400 µM
* CCCCCCCCn1c(-c2ccc(Br)cc2)cnc1NC1CCCC1 | > 400 µM
* O=c1cc(-c2ccccc2)oc2cc(O)c(O)c(O)c12 [Baicalein, reference compound] | ~23.5 µM
* CCCCCCCCn1c(-c2ccc(Cl)c(Cl)c2)cnc1NC1CCCC1 | > 400 µM
* O=C(N/N=C/c1ccc([N+](=O)[O-])o1)c1ccc(O)cc1 [Nifuroxazide, reference compound] | > 400 µM

---

# Test system: E. coli TG1
# assay.text: Monospecies bacterial biofilm inhibition, static peg assay
# Assay type: cell-based, Escherichia coli
# recorded.conditions: Escherichia coli, TG1, E. coli TG1, 37°C; read-out: IC50 (planktonic growth)
pIC50: −log10 of the molar value.
Items are presented alongside their recorded pIC50.
readout.name: pIC50

* Clc1ccc(-c2cnc(NC3CCCC3)[nH]2)cc1 | 4.77
* CCCCCCCCn1c(-c2ccc(Cl)c(Cl)c2)cnc1NCC(C)C | 4.33
* CCCCCCCCn1c(-c2ccc(Cl)cc2)cnc1N | 5.11
* CC(C)CNc1ncc(-c2ccc(Cl)cc2)[nH]1 | 4.52

---

# Test system: S. aureus ATCC 6538 + S. epidermidis
# assay.text: Mixed-species S. aureus-S. epidermidis biofilm assay (peg, crystal violet)
# Format: cell-based, Staphylococcus aureus + Staphylococcus epidermidis
# recorded.conditions: 48 h; mixed S. aureus ATCC 6538 + S. epidermidis biofilm, 37°C; read-out: BIC50
readout.name: IC50

- Clc1ccc(-c2cnc(NC3CCCC3)[nH]2)cc1 [Compound 5]: ~66.6 µM
- CCCCCCCCn1c(-c2ccc(Cl)cc2)cnc1N [Compound 2]: ~7.2 µM
- CC(C)CNc1ncc(-c2ccc(Cl)cc2)[nH]1 [Compound 3]: ~26.3 µM

---

# Test system: S. aureus ATCC 6538
# assay.text: Monospecies bacterial biofilm inhibition, static peg assay (Calgary device, crystal violet; planktonic OD600)
# Format: cell-based, Staphylococcus aureus
# recorded.conditions: Staphylococcus aureus, ATCC6538, read-out: BIC50 (concentration needed to inhibit biofilm formation by 50%), S. aureus ATCC 6538, 37°C
Items are presented alongside their recorded IC50.
readout.name: IC50

• CCCCCCCCn1c(-c2ccc(Cl)cc2)cnc1N = 2 to 6 µM
• CCCCNc1ncc(-c2ccc(Br)cc2)[nH]1 = ~12.3 µM
• CCCCCn1c(-c2ccccc2)cnc1N = 59.3 µM
